Target: LATS2 (Homo sapiens, UniProt Q9NRM7)
Sequence (Q9NRM7 1-1088): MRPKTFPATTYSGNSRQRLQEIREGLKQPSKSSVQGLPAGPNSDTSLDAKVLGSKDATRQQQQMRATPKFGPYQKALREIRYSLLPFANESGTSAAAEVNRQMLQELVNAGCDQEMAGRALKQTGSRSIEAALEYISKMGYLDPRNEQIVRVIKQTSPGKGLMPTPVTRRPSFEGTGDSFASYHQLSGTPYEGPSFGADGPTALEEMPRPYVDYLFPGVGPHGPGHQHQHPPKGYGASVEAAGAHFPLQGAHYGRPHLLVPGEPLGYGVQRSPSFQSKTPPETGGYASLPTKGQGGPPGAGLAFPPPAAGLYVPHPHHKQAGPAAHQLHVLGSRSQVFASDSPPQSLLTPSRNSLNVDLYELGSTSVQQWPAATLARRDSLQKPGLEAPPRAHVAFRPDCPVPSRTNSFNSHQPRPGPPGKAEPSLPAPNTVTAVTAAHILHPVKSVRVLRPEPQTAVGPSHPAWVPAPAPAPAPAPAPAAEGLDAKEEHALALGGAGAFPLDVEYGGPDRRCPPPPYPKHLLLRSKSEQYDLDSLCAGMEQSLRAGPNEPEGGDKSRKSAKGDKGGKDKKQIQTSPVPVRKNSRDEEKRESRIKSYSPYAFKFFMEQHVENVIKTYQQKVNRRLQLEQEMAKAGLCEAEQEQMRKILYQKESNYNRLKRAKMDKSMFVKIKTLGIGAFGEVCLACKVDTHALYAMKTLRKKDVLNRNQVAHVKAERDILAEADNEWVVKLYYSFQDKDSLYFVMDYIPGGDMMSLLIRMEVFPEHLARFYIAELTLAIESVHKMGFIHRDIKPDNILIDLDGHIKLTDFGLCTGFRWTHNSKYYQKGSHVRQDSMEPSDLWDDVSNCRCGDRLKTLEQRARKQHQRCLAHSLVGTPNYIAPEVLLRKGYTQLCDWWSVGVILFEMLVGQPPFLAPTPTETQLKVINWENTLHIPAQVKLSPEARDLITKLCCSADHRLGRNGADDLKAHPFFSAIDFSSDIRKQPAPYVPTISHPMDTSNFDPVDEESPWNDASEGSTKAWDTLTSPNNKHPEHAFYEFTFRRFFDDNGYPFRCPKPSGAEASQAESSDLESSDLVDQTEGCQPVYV
Assay: RBC HotSpot kinase assay (33P-ATP, P81 filter-binding), LATS2
Type: biochemical
Conditions: biochemical kinase inhibition; read-out: LATS2 IC50
pIC50: −log10 of the molar value.
measured.property: pIC50

Query: If you can, please state the reported pIC50 value of Cc1cc(-c2ccnc3[nH]cc(C#N)c23)cc(F)c1[C@@]1(O)[C@H](C)CN(C(=O)CNCC(F)(F)F)C[C@@H]1C .
Result: 8.22

[I] Cc1cc(-c2ccnc3[nH]cc(C#N)c23)cc(F)c1[C@@]1(O)[C@H](C)CN(C(=O)[C@@H](C)N)C[C@@H]1C
[II] Cc1cc(-c2ccnc3[nH]cc(C#N)c23)ccc1[C@@]1(O)[C@H](C)CN(C(=O)CN)C[C@@H]1C
Query: # query: argmin of pIC50 over I and II Identify your selection by its label.
Result: I

[A] N#Cc1c[nH]c2nccc(-c3ccc(C4(O)CCNCC4)cc3)c12
[B] Cc1cc(-c2ccnc3[nH]cc(C#N)c23)cc(F)c1[C@@]1(O)[C@H](C)CN(C(=O)[C@H](N)CO)C[C@@H]1C (single isomer, unassigned) [Compound 2006]
[C] Cc1cc(-c2ccnc3[nH]cc(C#N)c23)cc(F)c1[C@@]1(O)[C@H](C)CN(C(=O)C(C)(C)N)C[C@@H]1C
Query: Ascending sort, pIC50. Form entry: ranked labels (order as requested).
Result: C, A, B

[1] Cc1cc(-c2ccnc3[nH]cc(C#N)c23)cc(F)c1[C@@]1(O)[C@H](C)CN(C(=O)C(N)C(F)F)C[C@@H]1C (stereo partly shown)
[2] Cc1cc(-c2ccnc3[nH]cc(C#N)c23)ccc1[C@@]1(O)[C@H](C)CN(C2CCS(=O)(=O)CC2)C[C@@H]1C
Query: # query: argmin of pIC50 over 1 and 2 Identify your selection by its label.
Result: 1
